Cited source for all entries: patent US8569344B2

Each entry below carries its reported IC50.
# Target: hERG K+ channel (Homo sapiens)
# Sequence (Q12809 whole entry): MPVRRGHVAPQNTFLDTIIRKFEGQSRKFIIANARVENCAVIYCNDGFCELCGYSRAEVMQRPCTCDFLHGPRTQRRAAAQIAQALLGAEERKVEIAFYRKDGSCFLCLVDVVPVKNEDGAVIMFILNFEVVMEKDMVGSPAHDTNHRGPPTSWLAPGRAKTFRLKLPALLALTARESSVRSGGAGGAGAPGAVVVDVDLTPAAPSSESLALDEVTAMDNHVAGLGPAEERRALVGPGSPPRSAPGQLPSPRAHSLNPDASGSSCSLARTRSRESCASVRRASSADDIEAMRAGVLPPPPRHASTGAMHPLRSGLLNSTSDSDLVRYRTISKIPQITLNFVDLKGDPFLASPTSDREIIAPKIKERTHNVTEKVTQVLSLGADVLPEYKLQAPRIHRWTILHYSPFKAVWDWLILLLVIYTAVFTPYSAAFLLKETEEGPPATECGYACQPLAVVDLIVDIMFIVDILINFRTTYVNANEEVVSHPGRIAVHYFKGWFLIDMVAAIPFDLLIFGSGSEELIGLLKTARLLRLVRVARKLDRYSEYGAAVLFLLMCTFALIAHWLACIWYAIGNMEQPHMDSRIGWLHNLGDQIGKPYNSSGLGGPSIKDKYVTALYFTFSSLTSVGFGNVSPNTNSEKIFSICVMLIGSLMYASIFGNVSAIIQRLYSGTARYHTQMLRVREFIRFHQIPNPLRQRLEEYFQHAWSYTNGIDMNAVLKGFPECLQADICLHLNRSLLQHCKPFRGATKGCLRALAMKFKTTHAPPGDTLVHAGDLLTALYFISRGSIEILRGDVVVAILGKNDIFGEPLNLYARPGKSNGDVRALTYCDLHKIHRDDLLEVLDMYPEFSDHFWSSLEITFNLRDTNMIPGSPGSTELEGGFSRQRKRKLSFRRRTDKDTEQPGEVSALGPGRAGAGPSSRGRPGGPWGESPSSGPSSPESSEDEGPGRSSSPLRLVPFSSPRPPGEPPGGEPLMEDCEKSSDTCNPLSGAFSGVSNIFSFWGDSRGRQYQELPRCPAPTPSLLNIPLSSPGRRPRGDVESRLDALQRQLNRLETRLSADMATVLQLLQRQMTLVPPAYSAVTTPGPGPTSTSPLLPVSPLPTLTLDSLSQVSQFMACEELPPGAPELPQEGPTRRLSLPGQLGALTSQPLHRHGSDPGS
# Measurement protocol: hERG K+ Channel Block
# Format: cell-based
# Setup conditions: human

| Molecule | IC50 |
| --- | --- |
| CC(C)(C)NC(=O)CN1CCC(CNC(=O)c2cccc(Cl)c2)CC1 [Compound 364] | ≥ 8.3 µM |
| COc1cc(F)cc(C(=O)NCC2CCN(CC(=O)NC(C)(C)C)CC2)c1 [Compound 366] | ≥ 8.3 µM |
| CN(C(=O)CN1CCC(CNC(=O)c2cccc(Cl)c2)CC1)C(C)(C)C(F)(F)F [Compound 580] | ≥ 8.3 µM |
| CN(C(=O)CN1CCC(CNC(=O)c2cc(F)cc(C(F)(F)F)c2)CC1)C1(C)CCC1 [Compound 594] | ≥ 17 µM |
| Cc1cc(F)cc(C(=O)NCC2CCN(CC(=O)NC3(C)CCC3)CC2)c1 [Compound 476] | ≥ 16.6 µM |
| COc1cc(OC)cc(C(=O)NCC2CCN(CC(=O)NC3(C)CCC3)CC2)c1 [Compound 478] | ≥ 16.6 µM |
| COc1cc(F)cc(C(=O)NCC2CCN(CC(=O)NC3(C)CCC3)CC2)c1 [Compound 477] | ≥ 16.6 µM |
| CC(C)(C)[S+]([O-])NCCN1CCC(CNC(=O)c2cc(F)cc(C(F)(F)F)c2)CC1 (centres unmarked) [Compound 537] | ≥ 17 µM |
